Cited source for all entries: paper PMC4336329

target: human ether-à-go-go-related gene (hERG) potassium channel (human); assay: primary screen, population patch clamp on CHO cells stably expressing hERG; higher = less effect of the substance;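 further: peak tail current of the secondary pulse compared with the same well before compound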
Sequence (Q12809 whole entry, looked up): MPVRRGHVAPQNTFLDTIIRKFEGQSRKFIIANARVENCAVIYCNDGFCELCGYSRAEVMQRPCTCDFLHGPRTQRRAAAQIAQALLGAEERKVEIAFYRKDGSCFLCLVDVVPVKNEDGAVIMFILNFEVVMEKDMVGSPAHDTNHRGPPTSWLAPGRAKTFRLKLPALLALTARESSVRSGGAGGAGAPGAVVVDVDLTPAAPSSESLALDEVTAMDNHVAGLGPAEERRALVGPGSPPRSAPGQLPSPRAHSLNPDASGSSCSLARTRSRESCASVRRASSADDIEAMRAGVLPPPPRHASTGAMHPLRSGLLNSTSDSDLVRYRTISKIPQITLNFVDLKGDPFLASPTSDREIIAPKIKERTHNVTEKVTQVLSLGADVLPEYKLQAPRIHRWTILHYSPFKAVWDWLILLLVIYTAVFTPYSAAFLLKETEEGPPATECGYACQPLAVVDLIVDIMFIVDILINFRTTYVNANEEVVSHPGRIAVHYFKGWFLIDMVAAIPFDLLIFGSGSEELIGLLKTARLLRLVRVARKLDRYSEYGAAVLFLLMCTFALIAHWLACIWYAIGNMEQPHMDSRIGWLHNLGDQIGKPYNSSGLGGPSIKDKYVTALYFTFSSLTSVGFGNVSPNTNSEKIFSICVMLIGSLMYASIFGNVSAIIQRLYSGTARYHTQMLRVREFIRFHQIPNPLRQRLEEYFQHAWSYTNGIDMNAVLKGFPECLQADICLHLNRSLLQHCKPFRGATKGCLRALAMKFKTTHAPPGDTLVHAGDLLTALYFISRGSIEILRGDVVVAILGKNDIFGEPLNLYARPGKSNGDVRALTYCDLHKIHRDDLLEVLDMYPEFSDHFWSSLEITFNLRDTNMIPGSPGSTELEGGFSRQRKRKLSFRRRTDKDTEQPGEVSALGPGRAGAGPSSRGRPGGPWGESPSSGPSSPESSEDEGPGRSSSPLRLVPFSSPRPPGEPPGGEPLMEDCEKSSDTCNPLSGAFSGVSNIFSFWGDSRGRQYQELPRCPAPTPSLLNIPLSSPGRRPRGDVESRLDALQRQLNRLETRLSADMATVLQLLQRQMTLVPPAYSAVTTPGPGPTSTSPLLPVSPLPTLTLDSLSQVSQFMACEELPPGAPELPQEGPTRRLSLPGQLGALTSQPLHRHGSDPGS
The whole screen tested about 310,000 compounds, of which about 14,000 (4.5%) showed an effect of 50% or more. Effects have a minus sign here. The sample holds strong results, similar compounds and a random draw of the others, so the mix is not that of the screen.
measurement_label: hERG current change (%, negative = inhibition) at 10uM (%)
Please state the figure in %; there is no need to write the unit.

1. Cn1cnc2cc(NCc3ccccc3O)ccc21: 6.3
2. COc1ccc(C(CNC(=O)C(CCSC)NC(=O)c2ccccc2Cl)N2CCCC2)cc1 (stereo not drawn): -34.9
3. CCCCn1c(O)c(C(C)=NCCc2c[nH]c3ccccc23)c(=O)[nH]c1=O: -16

The compound listed as COC(=O)Oc1ccc(/C=C/C(=O)OC(C)C)cc1OC(=O)OC shows hERG current change (%, negative = inhibition) at 10uM equal to 1.69

The recorded hERG current change (%, negative = inhibition) at 10uM for entry Cc1ccc(CN2CC(C(=O)O)CC2=O)cc1 (stereo not drawn) equals 6.55

Reported hERG current change (%, negative = inhibition) at 10uM of CCCCn1c(O)c(C(C)=NC(Cc2c[nH]c3ccccc23)C(=O)OC)c(=O)[nH]c1=O (stereo not drawn) : -52.1
